test system: EKVX NSCLC; test: NCI tumour cell line growth inhibition, 48 h
OBSERVATION TYPE: TGI

Entry `Cc1c2ccncc2c(C)c2c1[nH]c1ccc(OCC(F)(F)F)cc12` — recorded TGI = 3.09 µM

Lookup result for `OCCOc1ccccc2cccc1-2` ; measured TGI: > 100 µM

Memo: `O=c1ssc(Cl)c1Cl` , reported TGI: > 10 µM

Query CCOC1Oc2ccccc2-c2nc(SC)ncc21 (stereo not given) yields TGI of > 100 µM

GET /value?item= `CN1CCN(C)C12C=CC=CC21CC1` &field=TGI returns > 100 µM

# TGI of COc1ccc(C2CC3(c4ccccc4)ON=C(c4ccccc4)N3c3ccccc3S2)cc1 (stereo not given) = > 100 µM

Record `CC(=O)c1cc(C(=O)c2ccc3c(c2)Sc2ccccc2N3)c2cc(C)ccn12` . Reported TGI: > 100 µM

# TGI of `COc1cc(C(=O)Nc2cc(OC)c3ccn(C)c3c2)cc2c1C[C@]1(C)CC[C@@H](O)C(C)(C)[C@H]1O2` = > 100 µM

Entry `CN1C/C=C/CCOc2cccc(c2)-c2ccnc(n2)Nc2cccc(c2)C1` — recorded TGI = 0.666 µM

Per the records, this compound ( C=C(CN1CC2C[C@](C(=O)OC)(c3cc4ccccc4[nH]3)C1C(OC)C2OC)S(=O)(=O)c1ccccc1 (stereo not given in full) ) has TGI equal to 13 µM

----------
tested on: U251 CNS; test: NCI tumour cell line growth inhibition, 48 h; in the data active means GI50 below about 0.43 µM; inactive means the rest
Pick one and only one: 1 for active, -1 for inactive

In: Which outcome was assigned to CCCCCCCCCCCCCCCCC(=O)O.CCCCCCCCCCCCCCCCCC(=O)O.CCCCCCCCCCCCCCCCCC(=O)O.CCCCCCCCCCCCCCCCCC(=O)O.CCCCCCCCCCCCCCCCCC(=O)O.CO[CH-]OC12COC1CC(O)C1(C)C(O)C(OC(C)O)C3=C(C)C(OC(=O)C(O)C([NH-])c4ccccc4)CC(O)(C(OC(=O)c4ccccc4)C21)C3(C)C.[Cu+].[Zn].[Zn].[Zn].[Zn].[Zn] (stereo not drawn) in this test?
Out: 1

In: Check the results log: what was the call for `COc1cc2c(cc1Nc1nc(Nc3cccc(F)c3C(N)=O)c3cc[nH]c3n1)N(C(=O)CN1CCN(C(C)C)CC1)CC2` ?
Out: -1

In: // outcome(item) with item = `COc1cc(C(=O)Nc2cc(OC)c3ccn(C)c3c2)cc2c1C[C@]1(C)CC[C@@H](O)C(C)(C)[C@H]1O2`
Out: 1

----------
I'd appreciate it if you could supply TGI values for the items below.
test system: OVCAR-3 ovarian; assay: NCI tumour cell line growth inhibition, 48 h
Express the result in µM but write the number alone.

Record `CCN(CC)Cc1c(/C=C\c2cc(OC)c(OC)c(OC)c2)ccc(OC)c1O` . Reported TGI: 6.49

The recorded TGI for entry `COc1cc2c(cc1OCCCCOc1cc3c(cc1OC)C(=O)N1CCC[C@H]1C(=O)N3)N=C[C@@H]1CCCN1C2=O` equals 25.7

Quick note, TGI for COc1cc(C2C(Cl)C(=O)N2NC(=O)c2ccc(N)cc2)cc(Br)c1O (stereo not given) landed at 20.8

The reported TGI of the compound `COc1cc(/C=C2\C[C@H]3[C@@H]4CC=C5C[C@@H](O)CC[C@]5(C)[C@H]4CC[C@]3(C)[C@H]2O)ccc1OCCCn1ccnc1` was 2.9

Entry `COc1ccc2[nH]c3c(C)c4ccnc(NCCCN(C)CCCNc5ccc6ncn7c8ccccc8c(=O)c5c67)c4c(C)c3c2c1` ; TGI = 6.56

Notebook: `COc1cc([N+](=O)[O-])c(OC)cc1-c1nc2sc(Cl)cn2c1/C=N/NC1=NCCN1` , TGI read as 2.62

Value of TGI reported for the compound COc1ccc(C2C=C(c3ccc4c(c3)OCO4)Oc3c2c(=O)oc2ccccc32)cc1OC (stereo not given) is 15.5
